ASSAY_DETAILS: qHTS assay to identify small molecule agonists or antagonists of the thyroid stimulating hormone receptor (TSHR) signaling pathway - wild type cell line counter screen (AID 1259384); further: on the % scale 0 is the no-effect control and ±100 the full control effect
CONDITION_SUMMARY: HEK293 wild type, cAMP HTRF counter-screen; series mostly up to 92.4 µM
Results filed as inconclusive are left out. Calls of active or inactive are those of the source. The call rests on the fitted dose curve.
MEASURED_METRIC: cAMP activity change

Reference set, count: 4
STRUCTURE_AS_SMILES | cAMP activity change
C=CCc1cc(S(=O)(=O)c2ccc(O)c(CC=C)c2)ccc1O | inactive
CC(O)(c1ccc(Cl)cc1)c1ccc(Cl)cc1 | inactive
Nc1cc([N+](=O)[O-])ccc1Cl | inactive
N#CCCOCCC#N | inactive

Qu. I'd like to know its cAMP activity change. The compound in question is "COc1ccc(OC)c(N=Nc2c(O)ccc3ccccc23)c1"
Ans. inactive

Qu. Give its cAMP activity change value. Item: "Nc1ccc(F)c([N+](=O)[O-])c1"
Ans. inactive

###

ASSAY_DETAILS: Caspase-3/7 induction in HepG2 cells by small molecules, qHTS cell viability counter screen (AID 1346981); further: nearly all actives have a fitted effect of over 30% in size
CONDITION_SUMMARY: CellTiter-Fluor fluorescence, 17 h; series mostly up to 92.4 µM
Inconclusive results are not listed. Activity calls are given as the source filed them. The call rests on the fitted dose curve; in most records, active means well fitted cell-killing curve with a large enough effect in the repeat runs; inconclusive means weak or mixed curves, or effect the other way; inactive means flat fitted curve, though single readings scatter.
API: response.call in active, inactive

Below, 6 compounds whose answers are already recorded.
COMPOUND | GROUP_LABEL
C=CC(=O)OCC(Br)CBr (stereo not drawn) | inactive
Nc1cc([N+](=O)[O-])cc(Cl)c1O | active
O=C(CCCCCCCCc1cccnc1)N1CCC(C=C(c2ccccc2)c2ccccc2)CC1 | inactive
C=C1CC[C@H]2O[C@]2(C)CC[C@@H]2[C@@H]1CC2(C)C | inactive
Cc1ccc2sc3cccc(C)c3c2c1 | inactive
O=C(NCc1ncc(C(F)(F)F)cc1Cl)c1c(Cl)cccc1Cl | inactive

Qu. Which result was noted for this compound in the test: CCC1(C)C(=O)N(Cl)C(=O)N1Cl (stereo not drawn)
Ans. inactive

Qu. So what was the verdict on "CCCCCCCCc1ccc(Nc2ccc(CCCCCCCC)cc2)cc1" in this test?
Ans. inactive

###

Recorded activity change, negative = cytotoxicity for the following compounds
ASSAY_DETAILS: Caspase-3/7 induction in CHO-K1 cells by small molecules, qHTS cell viability counter screen (AID 1346979); further: on the % scale 0 is the no-effect control and ±100 the full control effect; nearly all actives have a fitted effect of over 35% in size
CONDITION_SUMMARY: CellTiter-Fluor fluorescence, 17 h; series mostly up to 92.4 µM
Results filed as inconclusive are left out. Active and inactive are the calls of the source. Calls come from the whole dose curve; as a rule, active = well fitted cell-killing curve with a large enough effect in the repeat runs; inconclusive = weak or mixed curves, or effect the other way; inactive = no such curve, though single readings can be large or run the other way.

COMPOUND | RESULT
C=C[Si](C)(C)Cl | 6.64% [at 8.39 µM] (inactive)
CCCCCCCCCCCCS(=O)(=O)Cl | 5.87% [at 19 µM] (inactive)
C=CC(=O)OCCOC1C2CCC1C1CC=CC12 (centres undefined) | 4.17% [at 19 µM] (inactive)

Qu. May I ask what activity change, negative = cytotoxicity has been recorded for "COc1cc(C(C)C)ccc1C" ?
Ans. -7.98% [at 19 µM] (inactive)

###

ASSAY_DETAILS: qHTS assay to identify small molecule antagonists of the thyroid receptor (TR) signaling pathway - cell viability counter screen (AID 743064); further: nearly all actives have a fitted effect of over 50% in size
CONDITION_SUMMARY: GH3.TRE-Luc viability, CellTiter-Fluor, 24 h; series mostly up to 70.3 µM
Excerpt: National Center for Advancing Translational Sciences [NCATS] NIH Chemical Genomics Center [NCGC] U.S. Environmental Protection Agency [EPA] National Institutes of Environmental Health Sciences [NIEHS] National Toxicology Program [NTP] U.S. Food and Drug Administration [FDA] Thyroid receptor (TR), a nuclear hormone receptor, plays an important role in development, proliferation, differentiation, metabolism, brain function, and cardiovascular system. […]
Inconclusive results are not listed. Active and inactive are the calls of the source. The call rests on the fitted dose curve; in most records, active means well fitted cell-killing curve with a large enough effect in the repeat runs; inconclusive means weak or mixed curves, or effect the other way; inactive means no such curve, though single readings can be large or run the other way.
// one of active, inactive, no free text

Consider the following illustrative entries.
COMPOUND | GROUP_LABEL
CC(C)(COP(=O)(O)OP(=O)(O)OC[C@H]1O[C@@H](n2cnc3c(N)ncnc32)[C@H](O)[C@@H]1OP(=O)(O)O)C(O)C(=O)NCCC(=O)NCCS (some centres undefined) | inactive
C[N+](C)(C)CCOP(=O)(O)OP(=O)([O-])OC[C@H]1O[C@@H](n2ccc(N)nc2=O)[C@H](O)[C@@H]1O | inactive
CCCOC(=O)c1ccc(O)cc1 | inactive
C[C@H](Cc1ccc(O)c(O)c1)[C@@H](C)Cc1ccc(O)c(O)c1 | active
CNC(=O)C[C@@H](N)C(=O)N[C@@H](C(=O)N[C@@H]1C(=O)N2[C@@H]1SC(C)(C)[C@@H]2C(=O)O)c1ccc(O)cc1 | inactive
C=C(Nc1ccc(OCC)cc1)Nc1ccc(OCC)cc1 | inactive

Qu. Outcome? "COc1ccc(/C=C/C(=O)Nc2ccccc2C(=O)O)cc1OC"
Ans. inactive

Qu. GET /call?item= "Nc1cc(Cl)c(NC2=NCCN2)c(Cl)c1" returns the recorded outcome of this test.
Ans. inactive

Qu. // return assay outcome for "CCN(CC)CCn1c(=O)c(Cc2ccc(OC)cc2)nc2ccccc21"
Ans. active
